B1: PLAGL1 (parent)
chain: LELGSTEVLLDHLKAHAEEKPPSG

variants of: B1; assay: protein stability index of a GFP-peptide fusion (GPS, HEK-293T) (PSI 1-6); higher = more stable; details: c terminus: a fixed tail appended;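 also: lentivirally expressed fusions sorted by FACS into six bins by GFP to DsRed ratio, PSI derived from sequencing read proportions per bin multiplied by bin number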
Use Fulfilled when the recorded protein stability index is no lower than 4; use Not fulfilled when it is lower.

Field: example entries. Status: answers known.
residue change	class name
D11P	Fulfilled
S5E	Not fulfilled
E7M	Not fulfilled
P22T	Fulfilled

Moving on to the next variant.
Asked: Is it the case that `E19W` has protein stability index reaching or exceeding 4?
Given back: Not fulfilled
